The entries below come with measured PBM binding z-score values attached.
# Test system: PXR:RXRa (NR concentration 270 nM, RXRa partner concentration 90 nM)
# assayNotes: PBM binding z-score (relative to random genomic background probes); higher = stronger binding; sequences stand for … in GC…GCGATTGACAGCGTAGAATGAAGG
Hey, just send me the number, nothing else.

Previously resolved entries follow.
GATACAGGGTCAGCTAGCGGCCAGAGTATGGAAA    2.37
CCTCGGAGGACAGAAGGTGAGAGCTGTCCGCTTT    -0.301
GGAACGAGGGCATTCCAGTTGATAGCATGGCGAT    2.19
CCGAGTAGGTTCTGGGGCATTCAGGCAACGGTGA    -0.868
TCTAGCAGGCCAGAGGGCCACTCAAGAGGTACGG    -0.535
CATACAGGGTCAGCTAGACCAGAGTAGGGACGGC    2.03
CAAACCAGGTCAAGGTCAAAGTCGGTTTGTGCCA    5.84
CCTACTGGGCCATCAGGTCATTGAGATCAACGTT    2.08
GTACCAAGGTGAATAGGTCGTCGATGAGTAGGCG    0.807
CGTCAAAGTACAAGGTAACGTAACAGAAAGCAGC    -0.0227

Query block: Any idea what PBM binding z-score was measured for GCGACTGAGGCATCAGCAGGTTACCATAACTTAA ?
Result block: -0.397

Query block: Request: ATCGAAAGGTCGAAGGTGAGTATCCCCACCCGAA
Result block: 2.87

Query block: Next: TCTATTAGTTGAAGGGCTACCGACGAGTCCGTTT
Result block: 0.647

Query block: Please give the result for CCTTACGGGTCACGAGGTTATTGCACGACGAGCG too.
Result block: 4.88

Query block: Can you handle GCTTACGGGTCGAAGGTTATAGCATGAATAGAAT next?
Result block: 2.65

Query block: Continue with CCTATTAGGTGACCATAAGGGCAACCGAAGCTCG
Result block: 0.636

Query block: Same for TCTAGTTAGTCACGGAGGTCACACACGACGGGTA
Result block: 4.09

Query block: Same question for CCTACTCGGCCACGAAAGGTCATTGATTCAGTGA please.
Result block: 5.12

Query block: Try the sequence GTACCAAGGTGAATACGTCGTTGATGAGTAGGCG
Result block: -0.261

Query block: What do we get for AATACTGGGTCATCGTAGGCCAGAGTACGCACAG ?
Result block: 2.44

* * *

# System: THRa:RXRa (NR concentration 90 nM, RXRa partner concentration 90 nM)
# assayNotes: PBM binding z-score (relative to random genomic background probes); higher = stronger binding; sequences stand for … in GC…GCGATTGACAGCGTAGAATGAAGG
Short version: PBM binding z-score at least 2 is yes (1), less is no (0).

Query block: Exam item: decide whether the reported PBM binding z-score for TGAATGAGGTTATAAGATCTGGGAACGTTGCAAA is at least 2.
Result block: no (0)

Query block: What about this sequence? TCATATAGGTAATACAGGTGAGAGTCGGCATCTA
Result block: no (0)

Query block: What do you get for CTGACTGGGGCAAAGGTTACCATACTCAGTACGA ?
Result block: yes (1)

Query block: How about this sequence: TCTAGTTGGTCACGGAGGTTACACACGACGGGTA
Result block: no (0)

Query block: Try this sequence too: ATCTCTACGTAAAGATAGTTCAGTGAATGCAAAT
Result block: no (0)

Query block: Record: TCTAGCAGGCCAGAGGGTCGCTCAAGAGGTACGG
Result block: no (0)

Query block: Another sequence to check: TAGCCTAGGTCATGCGGGCCATTATAGTGTCGGC
Result block: yes (1)

Query block: Same lookup for ACAGACATGTGATGAAGGTAACTCAGGCTATCAT , please.
Result block: no (0)

Provenance of the data: the supplement of paper PMC6555819
